Origin of the recorded values: the Human Domainome abundance scans (Beltran et al. 2025)

B1: Glucocorticoid receptor, residues 419 to 494; numbered along this chain, P04150 (parent)
chain: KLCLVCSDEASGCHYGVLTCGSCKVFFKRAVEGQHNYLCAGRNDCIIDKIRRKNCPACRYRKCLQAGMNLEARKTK

Variants of: B1
ASSAY NOTES: abundance fitness (aPCA) (normalised: wild type 0, dead -1); higher = more abundant; growth selection in yeast, the domain comes from the species named
ASSAY CONTEXT: Homo sapiens
# abundance fitness per entry
QUANTITY: abundance fitness

[
  {
    "PRIMARY SEQUENCE": "KLCLVCSSEASGCHYGVLTCGSCKVFFKRAVEGQHNYLCAGRNDCIIDKIRRKNCPACRYRKCLQAGMNLEARKTK",
    "READOUT VALUE": -0.034
  },
  {
    "PRIMARY SEQUENCE": "KLVLVCSDEASGCHYGVLTCGSCKVFFKRAVEGQHNYLCAGRNDCIIDKIRRKNCPACRYRKCLQAGMNLEARKTK",
    "READOUT VALUE": -1.13
  },
  {
    "PRIMARY SEQUENCE": "KLCLVCSDEASGCHYGVLTCGSCKVFFKRAVEGQHNHLCAGRNDCIIDKIRRKNCPACRYRKCLQAGMNLEARKTK",
    "READOUT VALUE": -0.117
  },
  {
    "PRIMARY SEQUENCE": "KLCLVCSDEASGCHYGVLTCGSCKVFFKRAVEGQHNYLCAGRNFCIIDKIRRKNCPACRYRKCLQAGMNLEARKTK",
    "READOUT VALUE": -0.381
  },
  {
    "PRIMARY SEQUENCE": "KLCLVCSDEASGCHYGVLTCGSCKVFFKRAVYGQHNYLCAGRNDCIIDKIRRKNCPACRYRKCLQAGMNLEARKTK",
    "READOUT VALUE": -0.131
  },
  {
    "PRIMARY SEQUENCE": "KLCLVCSDEASGCHYGVLTCGSCKVFFPRAVEGQHNYLCAGRNDCIIDKIRRKNCPACRYRKCLQAGMNLEARKTK",
    "READOUT VALUE": -0.243
  },
  {
    "PRIMARY SEQUENCE": "KLCLVCSDPASGCHYGVLTCGSCKVFFKRAVEGQHNYLCAGRNDCIIDKIRRKNCPACRYRKCLQAGMNLEARKTK",
    "READOUT VALUE": 0.074
  },
  {
    "PRIMARY SEQUENCE": "KLCLVCSDEASGCHYGVLTCGSCKVFFKRAVEGQHNYLCAGRNDCIIDKIRRKNCPACRYRKCLQDGMNLEARKTK",
    "READOUT VALUE": -0.33
  },
  {
    "PRIMARY SEQUENCE": "KLCLVCSDEASGCHYGVQTCGSCKVFFKRAVEGQHNYLCAGRNDCIIDKIRRKNCPACRYRKCLQAGMNLEARKTK",
    "READOUT VALUE": -0.087
  },
  {
    "PRIMARY SEQUENCE": "KLCLVCSDEASGCHYGVLTCGSCKVFFKRAVEGQHNYLCAGRNDCIIDKIRRKNCPACRYRKCLQAGMNLEARFTK",
    "READOUT VALUE": 0.047
  },
  {
    "PRIMARY SEQUENCE": "KLCLVCSDEASGCHYGVLTCGSCKVFFKRAVEGQHNYLCAGRNDCIIDKIRRKNCPACRYRKCLQAGMNLEAFKTK",
    "READOUT VALUE": -0.059
  },
  {
    "PRIMARY SEQUENCE": "KLCLVCSDYASGCHYGVLTCGSCKVFFKRAVEGQHNYLCAGRNDCIIDKIRRKNCPACRYRKCLQAGMNLEARKTK",
    "READOUT VALUE": -0.105
  },
  {
    "PRIMARY SEQUENCE": "KLCLVCSDEASGCHYGVLTCGSCKVFFKRAVEGQHNYLCAGRNDCIGDKIRRKNCPACRYRKCLQAGMNLEARKTK",
    "READOUT VALUE": -0.304
  },
  {
    "PRIMARY SEQUENCE": "KLCLVCSDEASGCHYGVLTCGSCKVFFKRAVEGQHNPLCAGRNDCIIDKIRRKNCPACRYRKCLQAGMNLEARKTK",
    "READOUT VALUE": -0.104
  }
]
